// data source = the Human Domainome abundance scans (Beltran et al. 2025)

B1: POU domain, class 4, transcription factor 1, residues 266 to 347; numbered along this chain, Q01851 (parent)
chain: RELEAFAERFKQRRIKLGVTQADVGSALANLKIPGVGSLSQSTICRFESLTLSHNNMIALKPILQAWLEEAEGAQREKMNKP

- Variants of: B1
- run_description: abundance fitness (aPCA) (normalised: wild type 0, dead -1); higher = more abundant; growth selection in yeast, the domain comes from the species named
- condition_summary: Homo sapiens
# abundance fitness >= -0.4 gives Y, anything below gives N

sequence_entry | category_label
RELEAFAERFKQRRIKLGVTQADVGSALANLKIPGVGSLSQSTPCRFESLTLSHNNMIALKPILQAWLEEAEGAQREKMNKP [I44P] | N
RELEAFAERFKWRRIKLGVTQADVGSALANLKIPGVGSLSQSTICRFESLTLSHNNMIALKPILQAWLEEAEGAQREKMNKP [Q12W] | Y
RELEARAERFKQRRIKLGVTQADVGSALANLKIPGVGSLSQSTICRFESLTLSHNNMIALKPILQAWLEEAEGAQREKMNKP [F6R] | N

Req: Can RELEAFAERFKQRRIKLGVTQADVGSALANLKIPGVGSLSQSTICRFESLTLSHNNMIALKPILQAWLEEAEGAQIEKMNKP [R76I] be said to have abundance fitness at or above -0.4?
Resp: Y

Req: Can RELEAFAERFKQRRIKLGVTQADVGSALANLKIPGVGSLSQLTICRFESLTLSHNNMIALKPILQAWLEEAEGAQREKMNKP [S42L] be said to have abundance fitness at or above -0.4?
Resp: Y

Req: Can RELEAFAERFKQRRIKLGVTQADVGSALANLKIPGVGSLSQSTICRFESLCLSHNNMIALKPILQAWLEEAEGAQREKMNKP [T51C] be said to have abundance fitness at or above -0.4?
Resp: Y
